Assign protein stability index to each entry below.
B1: SPDEF (parent)
chain: FQELAGKELCAMSEEQFRQRSPLG

- Variants of: B1
- assay.remarks: protein stability index of a GFP-peptide fusion (GPS, HEK-293T) (PSI 1-6); higher = more stable;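 note: lentivirally expressed fusions sorted by FACS into six bins by GFP to DsRed ratio, PSI derived from sequencing read proportions per bin multiplied by bin number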
- test.parameters: c terminus: a fixed tail appended

protein stability index in this record for FQELAGKELCAMSEEQFRQRSPLA [G24A] : 2.94

Record summary for FQELAGKELCAMSEEQFAQRSPLG [R18A] : reported protein stability index = 2.93

// sample FQELAGKELCAMSWEQFRQRSPLG [E14W] , its protein stability index was 2.95

Form field protein stability index, entry FQELAGKELGAMSEEQFRQRSPLG [C10G] : 3.05
